System: HOP-92 NSCLC
Assay: NCI tumour cell line growth inhibition, 48 h; in the data active = GI50 below about 0.43 µM; inactive = the rest
The reply should be one of these categories: active, inactive

Sample answers from the record:
{"columns": ["compound", "label.class"],
 "data": [
  ["CS(=O)(=O)N1CCC(Nc2ncc(C(=O)c3c(F)cccc3F)c(N)n2)CC1", "inactive"],
  ["CN1C(=O)C(N=Nc2ccc([N+](=O)[O-])cc2)SC1=S (stereo not given)", "inactive"],
  ["CS(=O)(=O)Nc1cc(-c2ccc3ncc(C#N)c(Nc4ccc(F)c(Cl)c4)c3c2)cnc1Cl", "active"],
  ["Cc1ccc(C2=NN(c3ccc(S(=O)(=O)NC(=O)NCc4ccccc4)cc3)C(c3ccc(N(C)C)cc3)C2)c(C)c1 (stereo not given)", "inactive"]
]}

Below: the item to evaluate.
Returns: the outcome recorded for COc1cc2c(Nc3ccc(-c4ccc(N)cc4)cc3)ncnc2c(OC)c1OC in this assay.
inactive

###

Reported values of GI50 for individual entries
Tested on: COLO 205 colon
Assay: NCI tumour cell line growth inhibition, 48 h

{"columns": ["compound", "test.system", "GI50"],
 "data": [
  ["C=C(C)[C@@H]1CC[C@]2(C(=O)O)CC[C@]3(C)[C@H](CC[C@@H]4[C@@]5(C)C/C(=C/c6ccco6)C(=O)C(C)(C)[C@@H]5CC[C@]43C)[C@@H]12", "COLO 205 colon", "2.15 µM"]
]}

Give GI50; test system COLO 205 colon; compound N#CC1=C(N)N=C(N2CCOCC2)C(C#N)C12Nc1ccccc1S2 (configuration not stated)
12.7 µM

Retrieve GI50 on COLO 205 colon; query COc1cc(/C=C2\CC3C4CCC5=CC(=O)CC[C@]5(C)C4CC[C@]3(C)C2=O)ccc1OCCN1CCCC1 (some centres not stated)
2.04 µM

State GI50 (COLO 205 colon) of C[n+]1cccc(NC(=O)c2ccc3ccc4ccc(C(=O)Nc5ccc[n+](C)c5)nc4c3n2)c1 .
4.35 µM

Answer with GI50 of CO/N=C(/C)COc1ccc2c(c1)oc(=O)c1cc(OC)ccc12 measured for COLO 205 colon.
> 100 µM

Find the measured GI50 of CC(C)C[C@H](NC(=O)[C@@H](Cc1ccccc1)n1ccc(Nc2ccccc2)cc1=O)B(O)O with COLO 205 colon as test system.
0.545 µM

Consider the compound Cc1cc(S(=O)(=O)Nc2nc3ccccc3c(=O)n2Cc2ccco2)c(S)cc1Cl tested on COLO 205 colon; state its GI50.
> 100 µM

###

Test system: OVCAR-4 ovarian
Assay: NCI tumour cell line growth inhibition, 48 h
Below: a set of entries, each annotated with reported GI50.

Worked examples, 3 molecules total:
{"columns": ["smiles.string", "GI50"],
 "data": [
  ["CCN1CCN(Cc2ccc(NC(=O)Nc3nc(-c4cc(OC)c(OC)c(OC)c4)cs3)cc2C(F)(F)F)CC1", "1.47 µM"],
  ["COC(=O)CN1Cc2cc(C)cc(c2O)CN(CC(=O)OC)Cc2cc(C)cc(c2O)CN(CC(=O)OC)Cc2cc(C)cc(c2O)CN(CC(=O)OC)Cc2cc(C)cc(c2O)C1", "33.1 µM"],
  ["C[n+]1cccc(NC(=O)c2ccc3ccc4ccc(C(=O)Nc5ccc[n+](C)c5)nc4c3n2)c1", "7.37 µM"]
]}

Alright, here's another molecule for you.
Fill in GI50 for record NS(=O)(=O)c1ccc(N=Nc2c(O)[nH]c3ccc(C(=O)NCCCn4ccnc4)cc23)cc1
> 25 µM

###

Test system: MDA-MB-231 breast
Assay: NCI tumour cell line growth inhibition, 48 h
recorded.endpoint: log10(TGI) (log10 of the value in µM)
Quick note: numbers are log10 of TGI, with µM as the unit.

{"columns": ["molecule", "measured"],
 "data": [
  ["O=S(=O)(NCCNc1nccc(-c2c(-c3ccc(F)cc3)nc3sccn23)n1)c1ccc(O)cc1", 1.85],
  ["CN(C)CCC(=O)[C@@]1(O)CC[C@H]2[C@@H]3CC=C4C[C@@H](O)CC[C@]4(C)[C@H]3CC[C@@]21C", 1.52],
  ["COC(=O)C1C(C(=O)O)C2(c3ccccc3)C(=O)C1(c1ccccc1)C(c1ccc(OC)cc1)=C2c1ccc(OC)cc1 (stereo unspecified)", 1.74],
  ["Cc1nc2ccc(-n3ncc(C(=O)c4cc5ccccc5[nH]4)c3N)cc2[nH]1", 1.61]
]}

Write down the reported log10(TGI) (system: MDA-MB-231 breast) of CC(C)=CCC/C(C)=C/Cc1c2c(c3oc(-c4ccc(O)c(O)c4)c(O)c(=O)c3c1O)C=CC(C)(C)O2
1.16

Send back MDA-MB-231 breast log10(TGI) of CCc1ccc(Oc2c(-c3ccc(OCCc4cccc(C(F)(F)F)c4)cc3O)n[nH]c2C(F)(F)F)cc1 only.
1.05

Param request: log10(TGI) | system MDA-MB-231 breast | item COc1ccc(OC(=O)N2C/C(=C\c3ccccc3)C(=O)/C(=C/c3ccccc3)C2)cc1
0.89

Report measured log10(TGI) on MDA-MB-231 breast; entry: CC(=O)Oc1ccc2c(c1)[nH]c1c3ccc(OC(C)=O)cc3oc(=O)c21
1.95

Write down the reported log10(TGI) (system: MDA-MB-231 breast) of COc1ccc(/C(C)=C2\CCCN(Cc3ccccc3)C2)cc1
1.76

###

Item-by-item account of TGI
System: KM20L2 colon
Test: NCI tumour cell line growth inhibition, 48 h

Below, each entry is followed by its recorded TGI result.
{"columns": ["molecule", "measured"],
 "data": [
  ["CCN(N=O)C1C2(CCCC2)NC(=O)C12CCCC2 (stereo unspecified)", "> 100 µM"],
  ["CCCCCCCCCCCCC(O)C1CCC(C(O)CCCCC(O)CCCCCC2CC(CC(C)=O)C(=O)O2)O1 (stereo unspecified)", "19.7 µM"]
]}

Give the reported value of TGI for this record: N#CCCC(C#N)(C#N)CCC#N
> 100 µM

Give a short answer stating reported TGI for O=C(O)C1=C(CO)Oc2cc3c(cc2C1c1ccc2c(c1)OCO2)OCO3 (stereo unspecified) .
> 100 µM

Give recorded TGI. COc1ccc(OC(=O)N2C/C(=C\c3ccccc3)C(=O)/C(=C/c3ccccc3)C2)cc1
17 µM

Report measured TGI; entry is CC(=O)OCc1nnn2c1C(OC(C)=O)CC2 (stereo unspecified)
> 100 µM

Kindly indicate its recorded TGI. Item: O=C1c2cc3c(cc2[C@@H]2C(O)[C@H]4O[C@H]4C4CCN1C42)OCO3 (stereo partly specified)
> 37.5 µM

Indicate its recorded TGI; the molecule in question is CCCCCC(=O)OC[n+]1ccc2c(C)c3[nH]c4ccc(OC)cc4c3c(C)c2c1
> 100 µM

Retrieve TGI measured for O=C1C(Cl)C(c2ccc(O)cc2)N1n1cnc2ccccc2c1=O (stereo unspecified) and print it.
> 100 µM

Consider the molecule NC(CCc1nc(-c2cccc([N+](=O)[O-])c2)cs1)C(=O)O (stereo unspecified) . State its measured TGI.
> 100 µM

Given c1cc2c(cc1C1OCC3C(c4ccc5c(c4)OCO5)OCC13)OCO2 (stereo unspecified) , respond with its TGI.
> 100 µM

###

List of GI50 values.
System: HOP-92 NSCLC
Assay: NCI tumour cell line growth inhibition, 48 h

Consider the worked cases shown below.
{"columns": ["molecule", "measured"],
 "data": [
  ["COc1ccc(C2=C(c3ccccc3)C(=O)N3CCCC3C2)cc1 (centres undefined)", "> 100 µM"],
  ["Nc1nc2ccc(CNc3ccc(C(=O)NC(CC(=O)O)C(=O)O)cc3)cc2c(=O)[nH]1 (centres undefined)", "> 51 µM"],
  ["CC[C@]12C=CCN3CC[C@@]4(c5ccc(OC)cc5N(C)[C@H]4[C@@](O)(C(=O)OC)[C@@H]1OC(=O)CCC(=O)O[C@H]1CC[C@H]4[C@@H]5CCC6=CC(=O)CC[C@@H]6[C@H]5CC[C@]14C)[C@@H]32", "1.07 µM"]
]}

Now for the molecule whose GI50 we want.
Specify reported GI50 for the molecule shown: CCN1C(=O)/C(=c2\sc3n(c2=O)C2C(NN=3)N(CC)C(=O)N2CC)c2ccccc21 (centres undefined)
1.13 µM

###

Test system: HOP-92 NSCLC
Assay: NCI tumour cell line growth inhibition, 48 h
# log10 of TGI annotations
Values below are the log10 of the recorded TGI, with µM as the unit.

{"columns": ["compound", "log10 of TGI"],
 "data": [
  ["CS(=O)(=O)Nc1cc(-c2ccc3ncc(C#N)c(Nc4ccc(F)c(Cl)c4)c3c2)cnc1Cl", -0.21],
  ["Nc1c(C(=O)Nc2cccc(Cl)c2)sc2nc3c(cc12)C(O)CCC3 (centres undefined)", 1.58],
  ["[O-]c1c2c(nn1-c1ccc(F)cc1)c1ccccc1c[n+]2Cc1ccccc1", 1.76]
]}

Fetch value of log10 of TGI on HOP-92 NSCLC for Cn1c2ncccc2n2c(=O)cc(O)cc12 .
1.91

State recorded log10 of TGI with HOP-92 NSCLC, entry C=C(C(=O)c1ccccc1)C(NC(C)(C)C)c1ccccc1 (centres undefined) , no comment.
0.83
